Reported growth values are given for each entry in this list.
- System: MCF7 breast
- measurement.description: NCI-60 one-dose screen, 48 h (100 = growth as untreated, 0 = no growth, -100 = all killed)
- condition.details: 10 µM unless noted
The panel holds about 83,000 compounds, 20% with a hit somewhere; the sample as a whole holds those more often.
Your answer should be a plain number; it is taken to be in %.

# example entries with known answers
COc1cc(C(=O)c2c(N)ncn2-c2ccccc2)cc(OC)c1OC : 87.1
COc1ccc(-c2cc(C(=O)N3N=C(c4ccc(N)cc4)CC3c3ccccc3)c3ccccc3n2)cc1 (centres undefined) : 24.1
C/C(=C(\c1ccc(OCCN2CCCCCC2)cc1)c1ccc(OC(=O)Cc2ccccc2)cc1)c1ccc(Cl)cc1 : 3.78
C=C(c1ccc(C(=O)O)cn1)c1cc2c(cc1C)C(C)(C)CCC2(C)C : 65.6
CCOC(=O)C1CCN(c2ccc(N3C[C@@H](CNCc4ccc(C(=N)N)cc4)OC3=O)cc2)CC1 : 97.2
COc1ccc(-c2nnc(SCC(=O)Nc3ccc(/C(C)=N\O)cc3)n2-c2ccccc2)cc1OC : 69.2
Cc1ccc(C)c(-n2c(-c3ccc(Br)cc3)csc2=NC(=O)c2ccccc2F)c1 : 59.1
CC(CN)[C@@H]1CC[C@]2(CO)CC[C@]3(C)[C@H](CC[C@@H]4[C@@]5(C)CCC(N)C(C)(C)[C@@H]5CC[C@]43C)[C@@H]12 (some centres undefined) : -71.2

Task: Let me know recorded growth for O=C1Nc2ccc(F)cc2/C1=C\c1nc(-c2ccccc2F)n2ccccc12 , thanks.
Result: 47.9

---

- System: A549/ATCC NSCLC
- measurement.description: NCI-60 one-dose screen, 48 h (100 = growth as untreated, 0 = no growth, -100 = all killed)
- condition.details: 10 µM unless noted
This is part of a sample that, as a whole, favours compounds with a hit. Of some 83,000 tested, about 20% had one in any assay. Active and inactive are the calls of the source. Rule for the calls: active = growth percent below 10; inactive = the rest.
Reported growth values are given for each entry in this list.

# example entries with known answers
N#Cc1c(-c2ccccc2)cc(-c2ccccc2)n(CCCC(=O)NO)c1=O : 22.8% (inactive)
C=CCn1c(SCC(=O)Nc2ccc(C(=O)/C=C/c3cc(OC)c(OC)c(OC)c3)cc2)nnc1-c1cc(-c2ccc(OC)cc2)nc2ccccc12 : 98.1% (inactive)

Task: State growth (A549/ATCC NSCLC) of CCOC(=O)/C=C/c1c(C)[nH]c(=O)[nH]c1=O .
Result: 97.2% (inactive)

Task: State growth (A549/ATCC NSCLC) of O=C1/C(=C/c2ccc(Br)cc2)COc2ccc(O)c(O)c21 .
Result: 20.6% (inactive)

Task: State growth (A549/ATCC NSCLC) of CCNC(=O)Oc1ccc(/C(=C(/C)Cc2ccc(OC)cc2)c2ccc(OCCN3CCCCCC3)cc2)cc1 .
Result: 54.9% (inactive)

Task: State growth (A549/ATCC NSCLC) of CCC(C)Nc1ccc(NC(C)CC)cc1 (stereo not given) .
Result: 94.7% (inactive)

Task: State growth (A549/ATCC NSCLC) of CC[C@]12C=CCN3CC[C@@]4(c5ccc(OC)cc5N(C)[C@H]4[C@@](O)(C(=O)OC)[C@@H]1OC(=O)CCCN1CCOCC1)[C@@H]32 .
Result: 101% (inactive)

Task: State growth (A549/ATCC NSCLC) of CC(=O)N(Cc1ccccc1)c1nc2ccc(O)c(CN(C)C)c2s1 .
Result: 98.4% (inactive)

Task: State growth (A549/ATCC NSCLC) of Cc1nn(-c2ccccc2)c(/N=C/N(C)C)c1/C=C/C(=O)c1ccc(Cl)cc1 .
Result: 108% (inactive)

Task: State growth (A549/ATCC NSCLC) of Clc1ccc(-c2nc(-c3c[nH]c4ncccc34)cs2)cc1 .
Result: 55.2% [100 µM] (inactive)

---

- System: EKVX NSCLC
- measurement.description: NCI-60 one-dose screen, 48 h
- condition.details: 10 µM unless noted
- Description: Growth inhibition of the EKVX human Non-Small Cell Lung tumor cell line is measured as a screen for anti-cancer activity. Cells are grown in 96 well plates and exposed to the test compound for 48 hours. Compounds are tested at a single concentration, which is 10^-5 M for most compounds. The reported endpoint is percent growth (GI% or GIPRCNT), where numbers from 0 - 100% represent growth inhibition, and numbers from -100% - 0 represent cell death. […]
About 83,000 compounds went through this panel and 20% of them were active in at least one assay; those are over-represented in the sample as a whole. Active and inactive are the calls of the source. How the source made its calls: active means growth percent below 10; inactive means the rest.
Answer with one of the outcomes 1 for active, 0 for inactive

Observe how each entry below is paired with its result.
CCn1cc(C(=O)N/N=C/c2ccc(Br)cc2)c(=O)c2cc(F)c(N3CCNC(C)C3)c(F)c21 (stereo not given) : 0
CCNC(=O)Oc1ccc(/C(=C(/C)Cc2ccc(OC)cc2)c2ccc(OCCN3CCCC3)cc2)cc1 : 0
O=C(N/N=C/c1ccc(Cl)cc1Cl)c1ccc2nc(-c3ccc(Cl)cc3)[nH]c2c1 : 1
O=C(CCCCNC(=O)c1cc(=O)c(O)co1)Nc1ccccc1 : 0
CC(C)CCSc1nc(Nc2ccccc2)c(C#N)c(-c2ccccc2)n1 : 0

Task: Lab log entry: COc1ccccc1-n1c(-c2cc(O)ccc2C)cn2c3c(=O)[nH]c(=O)n(C)c3nc12 — outcome as called in the assay?
Result: 0

Task: Lab log entry: CC(C)CN1CC(C(=O)Nc2ccc3c(c2)-c2ccccc2C3)CC1=O (stereo not given) — outcome as called in the assay?
Result: 0

Task: Lab log entry: COc1ccc2c(c1)c(-c1ccc(-c3cn(C)c4ccc(OC)cc34)[nH]1)cn2C — outcome as called in the assay?
Result: 1

Task: Lab log entry: C=CC(=O)NCCOc1cccc(Nc2cc(NCCCNC(=O)C3CCC3)c(Br)cn2)c1 — outcome as called in the assay?
Result: 1

Task: Lab log entry: O=C(N=Nc1c(O)[nH]c2ccccc12)Nc1ccc(Cl)cc1 — outcome as called in the assay?
Result: 0

Task: Lab log entry: CCNc1nc(-c2ccc(F)cc2)c(C#N)c(=O)n1C — outcome as called in the assay?
Result: 0

Task: Lab log entry: O=C1OCC2=C1C(c1cccc(C(F)(F)F)c1)c1cc3c(cc1N2CCO)OCO3 (stereo not given) — outcome as called in the assay?
Result: 0

Task: Lab log entry: CCOC(=O)Cn1c(=O)c2c3ccccc3n(C)c2n2nnc(-c3ccccc3)c12 — outcome as called in the assay?
Result: 0

Task: Lab log entry: C=C(c1ccc(C(=O)O)cn1)c1cc2c(cc1C)C(C)(C)CCC2(C)C — outcome as called in the assay?
Result: 0

Task: Lab log entry: O=C(Nc1ccc(F)cc1)Nc1ccccc1CNc1nc(Nc2ccc(OCCN3CCCC3)cc2)ncc1Cl — outcome as called in the assay?
Result: 0

Task: Lab log entry: O=C(CCCCl)NNc1nccc(Nc2ccc(S(=O)(=O)Nc3ccncc3)cc2)n1 — outcome as called in the assay?
Result: 0

---

- System: OVCAR-8 ovarian
- measurement.description: NCI-60 one-dose screen, 48 h (100 = growth as untreated, 0 = no growth, -100 = all killed)
- condition.details: 10 µM unless noted
- Method: Growth inhibition of the OVCAR-8 human tumor cell line is measured as a screen for anti-cancer activity. Cells are grown in 96 well plates and exposed to the test compound for 48 hours. Compounds are tested at a single concentration, which is 10^-5 M for most compounds. The reported endpoint is percent growth (GI% or GIPRCNT), where numbers from 0 - 100% represent growth inhibition, and numbers from -100% - 0 represent cell death. For example, a value of 40 represents 60% growth inhibition. […]
The panel holds about 83,000 compounds, 20% with a hit somewhere; the sample as a whole holds those more often.
# label = Condition met if growth >= 60% else Condition not met

Cc1ccc2nc(Cl)c(Cn3nnnc3SCc3ccccc3)cc2c1 : Condition met
CCN(CC)CCOc1ccc(Nc2ncc3cc(-c4ccc(O)cc4)c(=O)n(C)c3n2)cc1 : Condition not met
O=C1N[C@@H]2[C@@H](O)[C@@H](O)[C@H](O)C[C@H]2c2cc3c(c(O)c21)OCCO3 : Condition not met

Task: Record CC(=O)N/C(=C1/OC(C(O)C(O)C(O)CO)CN1C)[P+](c1ccccc1)(c1ccccc1)c1ccccc1 (stereo not given) ; criterion: growth no lower than 60%. Met?
Result: Condition met

Task: Record CC(C)c1ccc(-n2c(=S)[nH]c3sc4c(c3c2=O)CCC(=O)C4)cc1 ; criterion: growth no lower than 60%. Met?
Result: Condition not met

---

- System: RPMI-8226 leukemia
- measurement.description: NCI-60 one-dose screen, 48 h
- condition.details: 10 µM unless noted
About 83,000 compounds went through this panel and 20% of them were active in at least one assay; those are over-represented in the sample as a whole. Active and inactive are the calls of the source. How the source made its calls: active means growth percent below 10; inactive means the rest.
Answer with one of the outcomes active, inactive

Observe how each entry below is paired with its result.
Cn1ccnc1C(=O)/C=C/c1ccc(C(=O)Nc2ccc(F)cc2)cc1 : active
N#Cc1c(NC(=O)c2cccs2)[n+]([O-])c2ccc(Cl)cc2[n+]1[O-] : inactive
Brc1ccc(-c2cnc3nonc3n2)cc1 : inactive

Task: Lab log entry: Cn1cc(-c2ccc3cc(-c4ccc(CC(=O)Nc5cc(C(C)(C)C)on5)cc4)cnc3c2)cn1 — outcome as called in the assay?
Result: inactive

Task: Lab log entry: O=C1Nc2ccc(F)cc2/C1=C\c1nc(-c2ccccc2F)n2ccccc12 — outcome as called in the assay?
Result: inactive

Task: Lab log entry: COc1cc(/C=N/Nc2ccccc2F)cc(OC)c1OC — outcome as called in the assay?
Result: inactive

Task: Lab log entry: COc1ccc2nc3ccccc3c(NCc3ccccc3)c2c1 — outcome as called in the assay?
Result: active
